From: the RNAGym collection of RNA variant scans (doi:10.1073/pnas.2313332121)

B1: TPR t1 (parent)
chain: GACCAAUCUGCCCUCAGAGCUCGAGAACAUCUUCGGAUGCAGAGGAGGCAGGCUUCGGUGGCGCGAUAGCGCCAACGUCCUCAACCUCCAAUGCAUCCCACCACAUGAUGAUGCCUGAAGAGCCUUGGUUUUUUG

- Variants of: B1
- METHOD_SUMMARY: polymerase ribozyme fitness, log enrichment relative to wild type (log ratio); higher = more active; in vitro selection for triplet polymerase activity
Tag: yes if measured polymerase ribozyme fitness (log ratio) is not below -2, no if it is.

> print(dat)
                            residue.change  qualitative.label
 1                              C72A A118C                 no
 2                              C28A U112A                yes
 3                     A41U G48C A83C C88G                 no
 4               A50U G57C G60C C85G G113A                 no
 5                               C12A C72A                yes
 6                               G36A C56U                yes
 7                    G44U C49U U96C A111G                 no
 8                               C56A A83C                yes
 9                     A2C C12A A66U C104U                 no
10             U7A U9C C15A A41U C56U U92G                yes
11                                A2G G93A                yes
12                              C70A U106G                 no
13                         A27G A50C A111U                 no
14             C53A G60A A100U G120C C123G                yes
15                         C85A C94A A111U                 no
16                              A26C U106G                 no
17                    C53G G60C C98A C102A                 no
18                              C56U G127A                yes
19                  C4U C8G U33G C85G C94U                 no
20                              C82U G113C                 no
21                              U78A G120A                yes
22                               G19U U55C                 no
23                               G71U A90U                yes
24                         C49G C70U U129A                 no
25                          A50G G69U C86G                yes
26                              C53U G113U                yes
27                               U55C C85A                 no
28                               G77C A95U                yes
29               G10A G52U C56G C98U G113U                 no
30                C3U G45U G60U A91G C123U                 no
31               C8A A43C C86G C123U U129G                 no
32                              C79U G113A                yes
33                              C97G C104U                 no
34                                C8U C73G                yes
35                   A37G G69U A100U C114G                yes
36               A18U G52A C72A C73A U112A                 no
37                                   G117A                yes
38                               G61C A90U                 no
39                               C22G C76G                 no
40                           A2C G61A C94U                yes
41                               A37G U59G                yes
42                               A43U G71U                yes
43                               U7C G135C                yes
44                     A6U C28G G58A A100U                 no
45                          A43U U55C U92C                 no
46                              C80U A111G                yes
47                         G60C C79G G122A                 no
48                              G71U U132C                yes
49                    G45C G51A U78A C123G                 no
50                               C12U G57A                yes
51          C11G G23C U32C G61A C86U U133A                 no
52                                   G117C                 no
53                        C98A C115U C123U                 no
54                               G36A G71U                yes
55                          C3G G10A U106A                 no
56                         A37C G65C A121U                 no
57                          C20A G42U G60A                 no
58                        G48C C104A C124A                yes
59                               C12G C64A                 no
60              G10U C73G U92A C101U C104U                 no
61                               U55G U96A                yes
62                    G42C G71U G77C A100U                 no
63                               C40A C73U                yes
64                       G127C G128U U131C                yes
65              C11U A18C A29C C101A G110C                 no
66                     U7G A50G U54C G128U                yes
67                      A6U A26G G52A G71U                 no
68                         G19A A95U C101U                 no
69                              C94A G128A                 no
70                         C28G G69U A121C                yes
71                G58C G71U A74G C85A A90C                 no
72                               G63U C89A                 no
73                    C34U C53G A66U C124A                 no
74                         C31U C72U U112A                 no
75                   U21A A46G G128C G135C                yes
76          U21A A37C A46U G77A C89U U131C                 no
77                          C15U A41U G48U                 no
78                                A5G G44A                yes
79                  U55C G120U C123G U131A                yes
80                               G60A C98G                 no
81                              C28U C124A                yes
82                        G35A A108U G120C                 no
83                         G60A C79U U130C                yes
84                        A66C G117A A119U                 no
85                               C22G C70U                 no
86                         A37C G45U C123A                yes
87           C8U G36U G39A G48U C72A U106A                yes
88  G36C G65U C72U G107A G117C G128A U133A                 no
